Biological target: NPC1-like intracellular cholesterol transporter 1 (Homo sapiens, UniProt Q9UHC9)
Sequence (Q9UHC9 whole entry): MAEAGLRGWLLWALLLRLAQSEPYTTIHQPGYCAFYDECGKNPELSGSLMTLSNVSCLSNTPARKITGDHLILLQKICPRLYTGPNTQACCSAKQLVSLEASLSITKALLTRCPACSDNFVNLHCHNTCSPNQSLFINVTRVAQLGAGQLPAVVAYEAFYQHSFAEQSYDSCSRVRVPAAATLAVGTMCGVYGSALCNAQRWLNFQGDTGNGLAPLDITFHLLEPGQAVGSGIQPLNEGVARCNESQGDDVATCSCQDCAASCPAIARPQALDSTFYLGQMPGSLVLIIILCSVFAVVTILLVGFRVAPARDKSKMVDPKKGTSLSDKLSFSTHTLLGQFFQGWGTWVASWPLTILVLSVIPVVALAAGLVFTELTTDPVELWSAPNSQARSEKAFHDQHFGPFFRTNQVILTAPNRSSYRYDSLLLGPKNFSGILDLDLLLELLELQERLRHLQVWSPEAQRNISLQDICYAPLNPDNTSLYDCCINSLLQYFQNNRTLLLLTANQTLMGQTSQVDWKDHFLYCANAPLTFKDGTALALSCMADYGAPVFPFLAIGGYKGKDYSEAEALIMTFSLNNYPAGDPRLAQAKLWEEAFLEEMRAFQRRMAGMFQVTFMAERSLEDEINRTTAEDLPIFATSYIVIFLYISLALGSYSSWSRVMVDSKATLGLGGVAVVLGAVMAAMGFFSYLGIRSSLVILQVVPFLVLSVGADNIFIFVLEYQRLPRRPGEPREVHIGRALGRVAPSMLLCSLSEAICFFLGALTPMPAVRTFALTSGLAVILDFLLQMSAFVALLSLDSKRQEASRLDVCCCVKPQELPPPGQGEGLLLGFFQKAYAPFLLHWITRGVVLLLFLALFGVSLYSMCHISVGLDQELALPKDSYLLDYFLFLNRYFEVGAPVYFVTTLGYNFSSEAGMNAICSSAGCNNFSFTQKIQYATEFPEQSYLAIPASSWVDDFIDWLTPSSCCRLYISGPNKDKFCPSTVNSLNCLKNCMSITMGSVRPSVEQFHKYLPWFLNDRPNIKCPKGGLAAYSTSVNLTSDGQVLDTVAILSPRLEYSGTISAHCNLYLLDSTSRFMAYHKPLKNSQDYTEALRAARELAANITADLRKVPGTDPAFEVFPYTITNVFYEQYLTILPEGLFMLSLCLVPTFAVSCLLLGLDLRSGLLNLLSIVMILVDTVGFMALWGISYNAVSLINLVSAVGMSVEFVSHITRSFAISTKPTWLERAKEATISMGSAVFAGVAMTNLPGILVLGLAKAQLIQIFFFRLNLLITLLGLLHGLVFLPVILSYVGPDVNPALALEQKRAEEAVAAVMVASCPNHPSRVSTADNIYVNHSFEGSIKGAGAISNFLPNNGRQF
Assay: Displacement of [35S](2S,3S,4S,5R,6S)-6-(4-((2S,3R)-3-((S)-3-(4-fluorophenyl)-3-hydroxypropyl)-1-(4-(3-(methylsulfonamido)prop-1-ynyl)phenyl)-4-oxoazetidin-2-yl)phenoxy)-3,4,5-trihydroxytetrahydro-2H-pyran-2-carboxylic acid from human NCP1L1 expressed in HEK 293
Assay type: cell-based, HEK293
measured_property: IC50 (µM)

[[record]]
compound = "CC(C)(C)c1ccc(C(=O)N2CCC3(CC2)C(=O)N(CC(=O)NCCCCCN)CN3c2ccccc2)cc1"
target_of_assay = "NPC1-like intracellular cholesterol transporter 1 (Homo sapiens, UniProt Q9UHC9)"
result = 7.7

[[record]]
compound = "CCOC(=O)C1CCCN(C(=O)CN2CN(c3ccccc3)C3(CCN(C(=O)c4ccc(C5CCCCC5)cc4)CC3)C2=O)C1 (stereo not drawn)"
target_of_assay = "NPC1-like intracellular cholesterol transporter 1 (Homo sapiens, UniProt Q9UHC9)"
result = 4.2

[[record]]
compound = "CCOC(=O)C1CCCN(C(=O)CN2CN(c3ccccc3)C3(CCN(C(=O)c4ccc(C(C)(C)C)cc4)CC3)C2=O)C1 (stereo not drawn)"
target_of_assay = "NPC1-like intracellular cholesterol transporter 1 (Homo sapiens, UniProt Q9UHC9)"
result = 8.2


Taken from ChEMBL document CHEMBL1629418.
